Let's look at some compounds and their measured IC50.
Target: Neuronal acetylcholine receptor; alpha4/beta2 (Homo sapiens, UniProt P17787+P43681)
Sequence (P17787 whole entry): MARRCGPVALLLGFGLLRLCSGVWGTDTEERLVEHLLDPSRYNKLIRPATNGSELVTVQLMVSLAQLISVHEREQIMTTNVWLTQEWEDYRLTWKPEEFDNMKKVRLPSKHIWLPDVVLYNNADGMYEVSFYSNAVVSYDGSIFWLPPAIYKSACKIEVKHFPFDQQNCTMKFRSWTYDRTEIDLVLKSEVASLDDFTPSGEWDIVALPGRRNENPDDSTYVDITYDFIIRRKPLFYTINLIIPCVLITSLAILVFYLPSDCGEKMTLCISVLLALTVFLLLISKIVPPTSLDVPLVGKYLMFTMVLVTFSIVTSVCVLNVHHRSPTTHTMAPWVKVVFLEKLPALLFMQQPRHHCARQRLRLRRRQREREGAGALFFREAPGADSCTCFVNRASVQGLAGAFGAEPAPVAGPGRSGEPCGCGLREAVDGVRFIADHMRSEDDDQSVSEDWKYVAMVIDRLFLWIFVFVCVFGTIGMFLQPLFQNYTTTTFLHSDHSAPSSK
Sequence (P43681 whole entry): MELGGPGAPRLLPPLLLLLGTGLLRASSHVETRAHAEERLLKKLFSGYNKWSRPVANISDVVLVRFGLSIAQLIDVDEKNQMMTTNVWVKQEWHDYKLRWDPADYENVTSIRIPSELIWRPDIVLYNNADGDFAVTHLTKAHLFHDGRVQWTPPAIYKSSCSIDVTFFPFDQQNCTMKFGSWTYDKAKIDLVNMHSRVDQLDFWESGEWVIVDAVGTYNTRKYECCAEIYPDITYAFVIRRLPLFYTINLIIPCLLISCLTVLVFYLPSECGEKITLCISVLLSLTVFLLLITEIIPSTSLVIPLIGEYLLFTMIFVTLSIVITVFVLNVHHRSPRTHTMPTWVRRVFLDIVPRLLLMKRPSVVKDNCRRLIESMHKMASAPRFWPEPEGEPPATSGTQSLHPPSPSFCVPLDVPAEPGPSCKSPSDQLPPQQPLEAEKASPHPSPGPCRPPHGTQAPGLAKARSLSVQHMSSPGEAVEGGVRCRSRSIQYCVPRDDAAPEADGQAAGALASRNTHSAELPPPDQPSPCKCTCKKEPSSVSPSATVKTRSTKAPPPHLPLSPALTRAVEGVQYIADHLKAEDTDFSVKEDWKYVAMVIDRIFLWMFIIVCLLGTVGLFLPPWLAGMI
Test: Inhibition of human (alpha4)2(beta2)3 nAChR expressed in Xenopus laevis oocytes assessed as inhibition of acetylcholine-induced current response in presence of 3 uM acetylcholine by two-electrode voltage-clamp method
Format: cell-based, Oocyte
Please state the figure in µM; there is no need to write the unit.

C=C1[C@@H]2CCC[C@@]1(COC(=O)c1ccccc1-c1cccc(NC(C)=O)n1)CN(CC)C2
27.3
C=C1[C@@H]2CCC[C@@]1(COC(=O)c1ccccc1-c1cc(NC(C)=O)ccn1)CN(CC)C2
15

Attention now turns to another entry.
QUERY: Supply recorded IC50 for `C=C1[C@@H]2CCC[C@@]1(COC(=O)c1ccccc1-c1ccc(NC(C)=O)cn1)CN(CC)C2` here.
RESULT: 29.1

----------
Target: Neuronal acetylcholine receptor; alpha4/beta2 (Rattus norvegicus, UniProt P09483+P12390)
Sequence (P09483 whole entry): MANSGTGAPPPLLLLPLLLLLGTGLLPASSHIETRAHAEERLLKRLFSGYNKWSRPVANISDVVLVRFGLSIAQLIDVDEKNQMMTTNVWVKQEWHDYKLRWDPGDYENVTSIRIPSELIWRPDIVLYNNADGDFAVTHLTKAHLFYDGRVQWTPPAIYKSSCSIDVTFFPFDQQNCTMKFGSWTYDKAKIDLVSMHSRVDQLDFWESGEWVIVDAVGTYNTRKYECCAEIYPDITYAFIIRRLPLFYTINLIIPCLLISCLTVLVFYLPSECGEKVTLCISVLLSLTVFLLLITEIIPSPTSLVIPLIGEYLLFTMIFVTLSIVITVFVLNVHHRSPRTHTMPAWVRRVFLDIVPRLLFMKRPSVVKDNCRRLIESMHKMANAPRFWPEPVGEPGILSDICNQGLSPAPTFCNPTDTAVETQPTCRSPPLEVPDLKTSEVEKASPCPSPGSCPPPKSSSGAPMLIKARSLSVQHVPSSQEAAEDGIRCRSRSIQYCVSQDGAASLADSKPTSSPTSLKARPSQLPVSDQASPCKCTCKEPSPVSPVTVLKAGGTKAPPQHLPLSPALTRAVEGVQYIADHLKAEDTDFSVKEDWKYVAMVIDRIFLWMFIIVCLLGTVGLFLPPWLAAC
Sequence (P12390 whole entry): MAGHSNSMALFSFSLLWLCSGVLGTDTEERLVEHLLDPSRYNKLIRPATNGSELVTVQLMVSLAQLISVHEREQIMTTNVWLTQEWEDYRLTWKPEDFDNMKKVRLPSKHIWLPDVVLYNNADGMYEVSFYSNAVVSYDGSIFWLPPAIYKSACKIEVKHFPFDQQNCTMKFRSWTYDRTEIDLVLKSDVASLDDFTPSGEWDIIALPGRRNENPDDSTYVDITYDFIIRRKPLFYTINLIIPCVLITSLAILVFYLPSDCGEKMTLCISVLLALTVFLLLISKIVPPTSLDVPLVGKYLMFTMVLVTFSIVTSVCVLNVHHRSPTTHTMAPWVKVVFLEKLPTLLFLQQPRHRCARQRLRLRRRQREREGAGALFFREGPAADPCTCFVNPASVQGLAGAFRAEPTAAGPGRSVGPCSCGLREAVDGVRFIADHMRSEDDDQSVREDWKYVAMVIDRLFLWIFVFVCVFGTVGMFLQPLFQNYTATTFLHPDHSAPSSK
Assay: Inhibition of rat alpha4beta2 nAChR expressed in Xenopus laevis oocytes assessed as inhibition of acetylcholine-elicited current response measured at holding potential of -60 mV by two-electrode voltage-clamp method
Measurement Name: IC50 (µM)
Please state the figure in µM; there is no need to write the unit.

QUERY: Supply recorded IC50 for C=C1[C@@H]2CCC[C@@]1(COC(=O)c1ccccc1N1C(=O)CC(C)C1=O)CN(CC)C2 (stereo partly specified) here.
RESULT: 4.66

----------
Biological target: Neuronal acetylcholine receptor; alpha4/beta2 (Homo sapiens, UniProt P17787+P43681)
Experiment: Inhibition of human (alpha4)3(beta2)2 nAChR expressed in Xenopus laevis oocytes assessed as inhibition of acetylcholine-induced current response at 10 uM pretreated for 30 secs followed by co-application with acetylcholine measured at holding potential of -60 mV by two-electrode voltage-clamp method
Type: cell-based
Settings: Oocyte, time 30.0 sec
The source made the active and inactive calls. No cut-off for these calls is given here.
Measurement Name: inhibition

C=C1[C@@H]2CCC[C@@]1(COC(=O)c1ccccc1-c1ccccn1)CN(CC)C2
50%
C=C1[C@@H]2CCC[C@@]1(COC(=O)c1ccccc1-c1ccncc1)CN(CC)C2
Active
C=C1[C@@H]2CCC[C@@]1(COC(=O)c1ccccc1-c1ccc(NC(C)=O)cc1)CN(CC)C2
Active
C=C1[C@@H]2CCC[C@@]1(COC(=O)c1ccccc1-c1cccc(NC(C)=O)c1)CN(CC)C2
Active

QUERY: Supply recorded inhibition for `C=C1[C@@H]2CCC[C@@]1(COC(=O)c1ccccc1-c1cccc(NC(C)=O)n1)CN(CC)C2` here.
RESULT: 80%

----------
Biological target: Neuronal acetylcholine receptor; alpha4/beta2 (Homo sapiens, UniProt P17787+P43681)
Assay: Inhibition of human (alpha4)3(beta2)2 nAChR expressed in Xenopus laevis oocytes assessed as inhibition of acetylcholine-induced current response at 10 uM pretreated for 30 secs followed by co-application with acetylcholine measured at holding potential of -60 mV by two-electrode voltage-clamp method
Format: cell-based
Settings: Oocyte, time 30.0 sec
The source made the active and inactive calls. The rule behind the calls is not given here.
Measurement Name: inhibition

CCN1C[C@]2(COC(=O)c3ccccc3N3C(=O)C[C@H](C)C3=O)CC[C@H](OC)[C@]34C1[C@@](O)([C@@H](OC)[C@H]23)[C@@]1(O)C[C@H](OC)[C@H]2C[C@@H]4[C@@H]1[C@H]2OC
95%
C=C1[C@@H]2CCC[C@@]1(COC(=O)c1ccccc1-c1ccc(NC(C)=O)nc1)CN(CC)C2
60%
C=C1[C@@H]2CCC[C@@]1(COC(=O)c1ccccc1-c1ccccc1)CN(CC)C2
Active
C=C1[C@@H]2CCC[C@@]1(COC(=O)c1ccccc1-c1ccnc(NC(C)=O)c1)CN(CC)C2
60%
C=C1[C@@H]2CCC[C@@]1(COC(=O)c1ccccc1-c1ccc(NC(C)=O)cn1)CN(CC)C2
60%
C=C1[C@@H]2CCC[C@@]1(COC(=O)c1ccccc1-c1cccnc1)CN(CC)C2
Active
C=C1[C@@H]2CCC[C@@]1(COC(=O)c1ccccc1-c1cc(NC(C)=O)ccn1)CN(CC)C2
80%

Attention now turns to another entry.
QUERY: Supply recorded inhibition for `C=C1[C@@H]2CCC[C@@]1(COC(=O)c1ccccc1-c1cncc(NC(C)=O)c1)CN(CC)C2` here.
RESULT: 60%
